In this section, each of the compounds is paired with its reported IC50.
Target: Mdm2/p53 binding (GST-Mdm2 / His-p53) (Homo sapiens, UniProt Q00987, L33E)
Construct: Mdm2 partial protein having Mdm2 amino acids at positions 25 to 108
Sequence (Q00987 25-108 L33E): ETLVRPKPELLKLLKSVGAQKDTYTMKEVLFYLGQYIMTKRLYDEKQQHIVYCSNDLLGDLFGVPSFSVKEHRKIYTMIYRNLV
Assay: Mdm2/p53 binding assay (HTRF, His-p53 and GST-Mdm2)
Conditions: His-p53 (aa 1-132) and GST-Mdm2 (aa 25-108, L33E) 6.25 nM each; 25°C, 1 hour; values given as ranges

CN(C)C(=O)[C@H]1CC[C@H](NC(=O)[C@@H]2NC3(CC(CF)(CF)C3)[C@@]3(C(=O)Nc4cc(Cl)ccc43)[C@H]2c2cccc(Cl)c2F)CC1: 1 to 50 nM
CNC(=O)[C@@H]1CC[C@@H](NC(=O)[C@@H]2NC3(CCC(C)(C)CC3)[C@@]3(C(=O)Nc4cc(Cl)ccc43)[C@H]2c2ccnc(Cl)c2F)CO1: 1 to 50 nM
CC1(C)CCC2(CC1)N[C@@H](C(=O)N[C@H]1CC[C@@](O)(CO)CC1)[C@H](c1cccc(Cl)c1F)[C@]21C(=O)Nc2cc(Cl)ccc21: 1 to 50 nM
CN(C)C(=O)[C@@H]1CC[C@@H](NC(=O)[C@@H]2NC3(CC(CF)(CF)C3)[C@@]3(C(=O)Nc4cc(Cl)ccc43)[C@H]2c2ccnc(Cl)c2F)CO1: 1 to 50 nM
CC1(C)CCC2(CC1)N[C@@H](C(=O)N[C@@H]1CC[C@@H](CC(N)=O)OC1)[C@H](c1ccnc(Cl)c1F)[C@]21C(=O)Nc2cc(Cl)ccc21: 1 to 50 nM

Can you share its IC50? I mean this compound: "CO[C@]1(CO)CC[C@@H](NC(=O)[C@@H]2NC3(CCC(C)(C)CC3)[C@@]3(C(=O)Nc4cc(Cl)ccc43)[C@H]2c2cccc(Cl)c2F)CC1"
50 to 100 nM

For the compound "CN(C)C(=O)C[C@@H]1CC[C@@H](NC(=O)[C@@H]2NC3(CCC(C)(C)CC3)[C@@]3(C(=O)Nc4cc(Cl)ccc43)[C@H]2c2ccnc(Cl)c2F)CO1" , what IC50 is on record?
1 to 50 nM

Consider the compound "CC1(C)CCC2(CC1)N[C@@H](C(=O)N[C@H]1CC[C@H](c3n[nH]c(=O)o3)CC1)[C@H](c1ccnc(Cl)c1)[C@]21C(=O)Nc2cc(Cl)ccc21" and give its measured IC50.
50 to 100 nM
